Data credit: patent US20150274719A1

Molecular target: recombinant guanylate cyclase reporter cell line (Rattus norvegicus, UniProt P19686+P20595)
Construct: expressed in transfected cells; host or cells: recombinant reporter cell line
Sequence (P19686 1-690): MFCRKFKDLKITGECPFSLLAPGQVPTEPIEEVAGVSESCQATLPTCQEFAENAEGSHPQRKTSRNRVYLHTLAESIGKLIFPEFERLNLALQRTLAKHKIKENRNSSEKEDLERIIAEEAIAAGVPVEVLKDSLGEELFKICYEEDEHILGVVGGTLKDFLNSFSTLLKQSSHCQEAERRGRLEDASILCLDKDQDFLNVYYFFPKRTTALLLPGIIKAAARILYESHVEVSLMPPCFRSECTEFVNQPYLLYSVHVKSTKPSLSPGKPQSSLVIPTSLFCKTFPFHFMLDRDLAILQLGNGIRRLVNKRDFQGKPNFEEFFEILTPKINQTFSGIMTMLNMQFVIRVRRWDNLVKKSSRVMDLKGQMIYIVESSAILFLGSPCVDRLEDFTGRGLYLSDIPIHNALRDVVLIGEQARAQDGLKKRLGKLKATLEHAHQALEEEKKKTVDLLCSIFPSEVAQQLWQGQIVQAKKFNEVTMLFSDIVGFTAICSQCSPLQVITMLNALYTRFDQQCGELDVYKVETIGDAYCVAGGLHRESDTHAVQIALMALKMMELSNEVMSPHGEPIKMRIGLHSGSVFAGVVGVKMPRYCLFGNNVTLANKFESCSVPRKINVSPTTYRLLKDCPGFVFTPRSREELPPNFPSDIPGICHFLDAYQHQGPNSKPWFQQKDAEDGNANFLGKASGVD
Sequence (P20595 1-619): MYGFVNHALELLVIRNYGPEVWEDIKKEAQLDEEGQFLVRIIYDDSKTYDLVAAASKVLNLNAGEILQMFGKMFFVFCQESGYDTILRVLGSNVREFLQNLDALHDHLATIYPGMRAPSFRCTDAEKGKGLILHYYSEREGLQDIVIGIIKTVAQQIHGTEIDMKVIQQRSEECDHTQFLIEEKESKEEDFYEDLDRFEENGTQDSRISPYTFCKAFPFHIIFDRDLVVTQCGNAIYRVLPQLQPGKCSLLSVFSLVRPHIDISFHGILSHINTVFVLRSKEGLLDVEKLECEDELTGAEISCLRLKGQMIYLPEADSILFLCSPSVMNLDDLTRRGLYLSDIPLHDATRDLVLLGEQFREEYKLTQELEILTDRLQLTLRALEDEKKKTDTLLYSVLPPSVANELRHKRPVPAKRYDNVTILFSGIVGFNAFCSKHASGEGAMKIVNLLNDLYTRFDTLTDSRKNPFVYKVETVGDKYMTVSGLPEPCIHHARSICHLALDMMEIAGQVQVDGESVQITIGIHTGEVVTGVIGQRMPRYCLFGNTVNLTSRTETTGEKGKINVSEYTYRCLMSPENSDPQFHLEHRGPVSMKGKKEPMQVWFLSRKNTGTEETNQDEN
Experiment: Action on recombinant guanylate cyclase reporter cell line
Assay type: cell-based
Settings: in some cases mean values from individual determinations
MEC (minimal effective concentration) listing for selected molecules.
Answer by giving the amount and then stating its unit.

[
  {
    "molecule": "CCCC(C)(N)CNC(=O)c1c(C)nc2c(OCc3c(F)cccc3F)cc(N3CCOCC3)cn12 (single isomer, unassigned; enantiomer b)",
    "MEC (minimal effective concentration)": "0.65 µM"
  }
]

Query: Note MEC (minimal effective concentration) for the molecule shown: Cc1nc2c(OCc3c(F)cccc3F)cc(Cl)cn2c1C(=O)NCC(N)C(C)C (single isomer, unassigned) [Example 211]
Result: 0.30 µM

Query: Give a short answer stating reported MEC (minimal effective concentration) for Cc1nc2c(OCc3c(F)cccc3F)cccn2c1C(=O)NCC(C)(N)COCc1ccccc1 (racemic) .
Result: 1.00 µM

Query: Quick one: give measured MEC (minimal effective concentration) for Cc1cc(OCc2c(F)cccc2F)c2nc(C)c(C(=O)NC3CCC3(C)N)n2c1 (racemic) [Example 331]
Result: 0.30 µM

Query: Please give measured MEC (minimal effective concentration) of the following entry: Cc1nc2c(OCc3c(F)cccc3F)cc(Cl)cn2c1C(=O)NCC(N)C(C)C (single isomer, unassigned) [Example 212]
Result: 1.00 µM

Query: Give recorded MEC (minimal effective concentration). CC(=O)Nc1cccc(C(CN)NC(=O)c2c(C)nc3c(OCc4c(F)cccc4F)cc(C)cn23)c1 (racemic)
Result: 3.00 µM

Query: Report MEC (minimal effective concentration), nothing else, for this molecule: COCC(N)CNC(=O)c1c(C)nc2c(OCc3c(F)cccc3F)cc(C)cn12 (single isomer, unassigned) [Example 243]
Result: 1.00 µM
